conditions: pH 6.8
Parameter: aqueous solubility (µg/mL)

Look over these answered cases.
COc1cc(F)ccc1-c1ncnc(Nc2cccc(C[S@@](C)(=N)=O)c2)n1 = 53.7
Cc1ccc(F)c(N(C#N)Cc2nccn2C(F)F)c1 = 45.1
Cc1cc(Nc2ccc(F)cn2)cc(C2CCN(C(=O)COc3ccccc3F)C2)n1 (centres undefined) = 55.6
O=C(NCCc1cccc2cccnc12)C1CCCCC1 = 41.7
Cn1cc(CCNc2cncc(Br)c2)cn1 = 40.4

(1) O=C(OCc1cc(Cl)ccn1)c1ccc2[nH]c(C(F)F)nc2c1
(2) CNC(=O)c1ccc(/C=C/c2nc3cc(Cl)ccc3o2)cc1
Request: Which record would sort first by descending aqueous solubility, 1 or 2 ? Answer by quoting the chosen item's label.
Result: 1

(a) COc1ccccc1N1CCN(c2nc(-c3ccc(C)cc3)cc(=O)[nH]2)CC1
(b) CCCn1ncnc1-c1ccccc1SC
Request: Min aqueous solubility? a | b Answer by quoting the chosen item's label.
Result: a
(a: 0.2 µg/mL, b: 19.9 µg/mL)

(P) CCc1ccc(NC(=O)C2CCN(c3ccc4nncn4n3)CC2)cc1
(Q) O=C([C@H]1CCCN(Cc2ccc(F)cc2)C1)N1CCc2ccccc2C1
(R) CCc1oc2c(-n3cnnc3)cccc2c1C
(S) Cc1cc(C)nc(N(C)CC(=O)NC2CC2)n1
(T) Cc1cccc(COc2cccc(/C=C3\C(=O)NN(c4ccccc4)C3=O)c2)c1
Request: Arrange the 5 compounds by rising aqueous solubility, starting with the smallest. Answer by listing the labels in the requested order.
Result: P, T, R, S, Q

(A) Cn1nc(C2CC2)c2[nH]c(-c3cccc(CN4CCOCC4)c3)nc21
(B) O=C(Nc1nc2cc(C(F)(F)F)cc(NC3CC3)n2n1)c1cccnc1
(C) COc1cncc(-c2ccnc3[nH]ccc23)c1
(D) CCCCOc1ccccc1-c1cc(C(=O)NCc2ccccc2C)[nH]n1
(E) Cc1csc(NC(=O)c2ccc(-c3ccncc3)cc2)n1
Request: Arrange the 5 compounds by rising aqueous solubility, starting with the smallest. Answer by listing the labels in the requested order.
Result: D, B, E, C, A
(D: 0.26 µg/mL, B: 1.1 µg/mL, E: 2.34 µg/mL, C: 24 µg/mL, A: 49.4 µg/mL)
